# System: P388 leukemia ip, CD2F1 mice, survival T/C
# Test Method Notes: NCI In Vivo Anticancer Drug Screen. Data for tumor model P388 Leukemia (intraperitoneal) in CD2F1 (CDF1) mice
# Condition Label: endpoint: median survival time; dose: 100.0 mg/kg/injection; schedule: Q04DX003 (ip); vehicle: saline with Tween-80
Toxic doses and inconclusive results are not listed. The calls were made as follows: active = survival T/C of 150% or more; inactive = T/C below 125% in these data.
Permitted responses: active, inactive

Here's what some known entries look like.
• NC(=O)/C=C/C(N)=O = inactive
• C=CC(=O)NCNC(=O)CCBr = active
• CC1(C)N=C(N)N=C(N)N1c1ccc(OCCOc2ccc(S(=O)(=O)F)cc2)c(Cl)c1 = active

Enquiry: Tell me the assay call for CCCCCCCCCCCC(=O)NN please.
Return: inactive

Enquiry: Subsequent entry: c1ccc(C2CC(c3ccc(C4=NN(c5ccccc5)C(c5ccccc5)C4)cc3)=NN2c2ccccc2)cc1 (stereo not drawn)
Return: inactive

Enquiry: Subsequent entry: CC(=O)/C=C/C=C\C=C/N=C(c1ccccc1)c1ccccc1
Return: inactive

Enquiry: Subsequent entry: COc1ccc2c(c1)CC[C@@H]1[C@@H]2CC[C@]2(C)/C(=N\O)CC[C@@H]12
Return: inactive

----------
# System: P388 leukemia ip, CD2F1 mice, survival T/C
# Test Method Notes: NCI In Vivo Anticancer Drug Screen. Data for tumor model P388 Leukemia (intraperitoneal) in CD2F1 (CDF1) mice
# Condition Label: endpoint: median survival time; dose: 100.0 mg/kg/injection; schedule: Q04DX002 (ip); vehicle: Klucel (hydroxypropylcellulose) (HPC); higher = longer survival
Toxic doses and inconclusive results are not listed.
Metric: T/C

Example entries begin here.
* O=C1C(N=Nc2cc(Cl)ccc2Cl)C(O)N(c2ccc(Cl)cc2)C(=S)N1c1cccc(Cl)c1Cl (stereo unspecified) | 100 % of control
* O=c1ccc2cc3ccoc3c(OCCCCCCBr)c2o1 | 91 % of control
* CC1(C)OI(O)c2ccccc21 | 100 % of control
* Cc1[nH]nc2c(Cc3ccc([N+](=O)[O-])cc3)n[nH]c(=O)c12 | 92 % of control
* Cc1cc(C)c(OP(=S)(Oc2c(C)cc(C)cc2C)Oc2c(C)cc(C)cc2C)c(C)c1 | 87 % of control

Now turn to the next molecule.
Enquiry: Quick check: T/C of Cc1ccc(C)c(OP2(=O)NC3CCCCC3N2)c1 (stereo unspecified) ?
Return: 91 % of control

----------
# Tested on: P388 leukemia ip, CD2F1 mice, survival T/C
# Test Method Notes: NCI In Vivo Anticancer Drug Screen. Data for tumor model P388 Leukemia (intraperitoneal) in CD2F1 (CDF1) mice
# Condition Label: endpoint: median survival time; dose: 200.0 mg/kg/injection; schedule: Q01DX009 (ip); vehicle: water; higher = longer survival
Toxic doses and inconclusive results are not listed.
Metric: T/C

Example entries begin here.
- CN1C(=O)C2CC(O)C(SC3CC4C(=O)N(C)C(=O)C4CC3O)CC2C1=O (stereo unspecified): 98 % of control
- CC1=NNC2(CCCCC2)C1: 106 % of control
- O=C1NC(=O)C2(CC3CCCC(C2)N3CCO)N1 (stereo unspecified): 100 % of control
- O=C(Cn1ccnc1[N+](=O)[O-])NCCO: 114 % of control

Enquiry: Quick check: T/C of Cc1nnc(SCC2=C(C(=O)O)N3C(=O)C(NC(=O)Cn4cc(Cl)c(=O)c(Cl)c4)C3SC2)s1 (stereo unspecified) ?
Return: 100 % of control

Enquiry: Subsequent entry: NCC(=O)OCN1C(=O)C2C3C=CC(C2C1=O)C1C2C(=O)N(COC(=O)CN)C(=O)C2C31 (stereo unspecified)
Return: 91 % of control
